Target: UniProt:P17706
Sequence (P17706 whole entry): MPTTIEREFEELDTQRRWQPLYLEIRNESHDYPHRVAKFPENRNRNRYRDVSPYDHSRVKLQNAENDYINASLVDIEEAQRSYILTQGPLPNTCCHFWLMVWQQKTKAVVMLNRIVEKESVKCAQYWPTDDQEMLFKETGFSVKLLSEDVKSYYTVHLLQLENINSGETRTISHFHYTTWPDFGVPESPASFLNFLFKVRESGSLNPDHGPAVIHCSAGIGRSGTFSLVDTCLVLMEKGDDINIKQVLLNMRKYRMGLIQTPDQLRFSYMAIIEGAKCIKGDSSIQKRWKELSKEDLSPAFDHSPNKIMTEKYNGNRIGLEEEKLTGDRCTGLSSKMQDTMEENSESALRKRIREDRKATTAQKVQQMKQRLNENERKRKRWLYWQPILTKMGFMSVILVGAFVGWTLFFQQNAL
Assay: Inhibition of human recombinant TCPTP (1 to 341 residues) expressed in Escherichia coli using p-nitrophenyl phosphate as substrate by UV spectroscopy
RESULT TYPE: IC50 (nM)
Provide only the numeric value, understood in nM.

Data request: What does the data say about its IC50? Entry: O=C(O)C(=O)c1ccc(OCc2ccc(COc3ccc(C(=O)C(=O)O)cc3)c(C(=O)Nc3ccc(Oc4ccccc4)cc3)c2)cc1
Data returned: 2400

----------
target: Tyrosine-protein phosphatase non-receptor type 2 (Homo sapiens); experiment: Inhibition of human GST-tagged TCPTP expressed in Escherichia coli BL21 (DE3) cells using p-Nitrophenyl phosphate as substrate by microplate reader method
RESULT TYPE: pIC50
Field pIC50 (float): negative decimal logarithm of the concentration in molar.

Data request: What does the data say about its pIC50? Entry: COC(=O)[C@H](Cc1ccc(O)cc1)n1cc(CO[C@H]2[C@@H](OCc3ccccc3)[C@@H](OC)O[C@H](COCc3ccccc3)[C@H]2OCc2cn([C@@H](Cc3ccc(O)cc3)C(=O)OC)nn2)nn1
Data returned: 4.22

----------
Biological target: UniProtKB P18031
Sequence (P18031 whole entry): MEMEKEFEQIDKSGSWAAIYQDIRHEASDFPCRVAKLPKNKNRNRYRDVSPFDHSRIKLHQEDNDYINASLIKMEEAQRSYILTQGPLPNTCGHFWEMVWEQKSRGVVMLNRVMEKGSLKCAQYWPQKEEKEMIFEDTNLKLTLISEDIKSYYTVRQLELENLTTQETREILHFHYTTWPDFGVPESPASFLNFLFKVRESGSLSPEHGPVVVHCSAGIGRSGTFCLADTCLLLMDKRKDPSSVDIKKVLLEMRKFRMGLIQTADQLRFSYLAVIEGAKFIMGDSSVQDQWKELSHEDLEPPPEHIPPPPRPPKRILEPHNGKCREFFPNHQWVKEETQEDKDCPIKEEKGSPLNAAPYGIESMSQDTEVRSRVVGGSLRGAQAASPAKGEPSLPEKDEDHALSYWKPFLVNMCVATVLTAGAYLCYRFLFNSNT
Assay: Inhibition of human PTP1B (1 to 288 residues) expressed in Escherichia coli BL21 (DE3) cells using p-nitrophenyl phosphate as substrate monitered every 30 secs for 15 mins by micro plate reader method
RESULT TYPE: IC50 (µM)
Provide only the numeric value, understood in µM.

Data request: What does the data say about its IC50? Entry: COC(=O)c1c(O)cccc1OC/C=C/c1ccc(F)c(-c2cc(C(=O)O)no2)c1
Data returned: 6.9

----------
biological target: UniProt P17706; assay: Inhibition of TCPTP (unknown origin)
Give pIC50 for every item shown.
Field pIC50 (float): negative decimal logarithm of the concentration in molar.

Data request: What does the data say about its pIC50? Entry: COC(=O)c1c(O)cccc1OC/C=C/c1ccc(F)c(-c2cc(C(=O)O)no2)c1
Data returned: 3.79

Data request: What does the data say about its pIC50? Entry: CC(=O)N[C@H](Cc1ccc(N(C(=O)C(=O)O)c2ccccc2C(=O)O)c2ccccc12)C(=O)NCCCCCOc1cc2ccccc2cc1C(=O)O
Data returned: 7.31

Data request: What does the data say about its pIC50? Entry: COC(=O)c1c(O)cccc1OC/C=C/c1cccc(-c2onc(C(=O)O)c2CO)c1
Data returned: 4.72

----------
Biological target: Tyrosine-protein phosphatase non-receptor type 1 (Homo sapiens, UniProt P18031)
Sequence (P18031 whole entry): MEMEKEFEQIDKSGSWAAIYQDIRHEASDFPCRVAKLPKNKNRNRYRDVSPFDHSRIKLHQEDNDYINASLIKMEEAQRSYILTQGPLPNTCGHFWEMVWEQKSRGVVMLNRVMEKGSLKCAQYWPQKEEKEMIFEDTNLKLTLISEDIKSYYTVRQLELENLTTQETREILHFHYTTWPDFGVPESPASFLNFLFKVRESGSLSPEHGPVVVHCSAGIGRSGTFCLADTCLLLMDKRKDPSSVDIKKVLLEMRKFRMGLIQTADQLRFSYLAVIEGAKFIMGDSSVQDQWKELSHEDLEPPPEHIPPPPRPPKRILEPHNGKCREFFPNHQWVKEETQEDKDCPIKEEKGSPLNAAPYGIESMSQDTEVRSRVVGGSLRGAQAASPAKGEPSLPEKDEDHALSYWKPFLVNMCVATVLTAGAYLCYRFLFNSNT
Assay: Inhibition of human recombinant PTP1B expressed in Escherichia coli using p-nitrophenyl phosphate as substrate by UV spectroscopy
RESULT TYPE: pIC50
Field pIC50 (float): negative decimal logarithm of the concentration in molar.

Data request: What does the data say about its pIC50? Entry: O=C(O)C(=O)c1ccc(OCc2ccc(COc3ccc(C(=O)C(=O)O)cc3)c(C(=O)Nc3ccc(Oc4ccccc4)cc3)c2)cc1
Data returned: 5.82

----------
target: Tyrosine-protein phosphatase non-receptor type 2 (Homo sapiens, UniProt P17706); assay: Inhibition of TCPTP (unknown origin) using p-nitrophenyl phosphate as substrate by colorimetric method
RESULT TYPE: Ki (nM)
Provide only the numeric value, understood in nM.

Data request: What does the data say about its Ki? Entry: CCCCCNC(=O)[C@H](Cc1ccc(C(=O)C(=O)Nc2ccccc2C(=O)O)c(/C=C/C(N)=O)c1)NS(C)(=O)=O
Data returned: 160

----------
Biological target: Tyrosine-protein phosphatase non-receptor type 1 (Homo sapiens)
Sequence (P18031 whole entry): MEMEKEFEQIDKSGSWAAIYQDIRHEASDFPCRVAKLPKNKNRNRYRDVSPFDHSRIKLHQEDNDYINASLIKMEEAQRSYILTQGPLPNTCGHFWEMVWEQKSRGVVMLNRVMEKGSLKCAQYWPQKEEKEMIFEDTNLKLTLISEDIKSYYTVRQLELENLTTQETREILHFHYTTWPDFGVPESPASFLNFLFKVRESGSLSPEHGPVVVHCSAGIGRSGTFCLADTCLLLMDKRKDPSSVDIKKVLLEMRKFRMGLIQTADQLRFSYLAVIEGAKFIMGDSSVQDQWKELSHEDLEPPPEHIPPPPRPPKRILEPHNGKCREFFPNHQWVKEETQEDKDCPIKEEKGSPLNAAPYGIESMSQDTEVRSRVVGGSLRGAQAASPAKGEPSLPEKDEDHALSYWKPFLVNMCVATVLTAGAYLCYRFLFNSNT
Experiment: Inhibition of PTP1B catalytic domain (1 to 321 residues) (unknown origin) expressed in Escherichia coli BL21 (DE3) cells using p-Nitrophenyl phosphate as substrate
RESULT TYPE: Ki (nM)
Provide only the numeric value, understood in nM.

Data request: What does the data say about its Ki? Entry: NC(=O)[C@H](Cc1ccc(C(F)(F)P(=O)(O)O)cc1)NC(=O)[C@H](Cc1ccc(O)cc1)NC(=O)Cc1ccc(C(F)(F)P(=O)(O)O)cc1
Data returned: 4.9

Origin of values: ChEMBL document CHEMBL3817817
